Source listed as the supplement of paper PMC9112550.

tested on: Escherichia coli TOP10; test: shrunken log2 fold change of peptide-encoding DNA abundance (4.5 h post-induction vs induction); higher = less antimicrobial activity (less host growth inhibition); details: time post-induction: 4.5 h; library: site-saturation at positions 5, 18, 19, 20
If the reported shrunken log2 fold change equals or exceeds -0.1, assign y. If not, assign n.

Could you verify whether the entry `RRIRKRPPRLPRPRPRPEQDPRP` shows shrunken log2 fold change of no less than -0.1?
y

Could you verify whether the entry `RRIRKRPPRLPRPRPRPAQYPRP` shows shrunken log2 fold change of no less than -0.1?
n

Could you verify whether the entry `RRIRWRPPRLPRPRPRPYGKPRP` shows shrunken log2 fold change of no less than -0.1?
y

Could you verify whether the entry `RRIRIRPPRLPRPRPRPWTGPRP` shows shrunken log2 fold change of no less than -0.1?
y

Could you verify whether the entry `RRIRARPPRLPRPRPRPRRFPRP` shows shrunken log2 fold change of no less than -0.1?
y

***
Could you verify whether the entry `RRIRRRPPRLPRPRPRPHHFPRP` shows shrunken log2 fold change of no less than -0.1?
n

Could you verify whether the entry `RRIRVRPPRLPRPRPRPNARPRP` shows shrunken log2 fold change of no less than -0.1?
y

Could you verify whether the entry `RRIRSRPPRLPRPRPRPVPMPRP` shows shrunken log2 fold change of no less than -0.1?
y

Could you verify whether the entry `RRIRERPPRLPRPRPRPILTPRP` shows shrunken log2 fold change of no less than -0.1?
n

Could you verify whether the entry `RRIRSRPPRLPRPRPRPKRSPRP` shows shrunken log2 fold change of no less than -0.1?
y

Could you verify whether the entry `RRIRERPPRLPRPRPRPPCSPRP` shows shrunken log2 fold change of no less than -0.1?
n

Could you verify whether the entry `RRIRLRPPRLPRPRPRPSYDPRP` shows shrunken log2 fold change of no less than -0.1?
n

Could you verify whether the entry `RRIRQRPPRLPRPRPRPGYHPRP` shows shrunken log2 fold change of no less than -0.1?
n

Could you verify whether the entry `RRIRMRPPRLPRPRPRPLTKPRP` shows shrunken log2 fold change of no less than -0.1?
y

###

tested on: Escherichia coli TOP10; experiment: shrunken log2 fold change of peptide-encoding DNA abundance (4.5 h post-induction vs induction); higher = less antimicrobial activity (less host growth inhibition); settings: time post-induction: 4.5 h; library: site-saturation at positions 5, 18, 19, 20
Reported metric: shrunken log2 fold change
One number for each entry.

Observe how each entry below is paired with its result.
# return recorded shrunken log2 fold change for entry `RRIRGRPPRLPRPRPRPLPCPRP`
0.51

# return recorded shrunken log2 fold change for entry `RRIRQRPPRLPRPRPRPGSMPRP`
-0.174

# return recorded shrunken log2 fold change for entry `RRIRGRPPRLPRPRPRPNASPRP`
0.496

# return recorded shrunken log2 fold change for entry `RRIRHRPPRLPRPRPRPKYFPRP`
-0.0202

# return shrunken log2 fold change for each item in the list
1. RRIRARPPRLPRPRPRPTQHPRP
2. RRIRKRPPRLPRPRPRPMTMPRP
3. RRIRRRPPRLPRPRPRPLNAPRP
4. RRIRFRPPRLPRPRPRPGASPRP

[0.698, -0.00185, 0.257, 0.109]

###

For each entry below, report its shrunken log2 fold change value.
test system: Escherichia coli TOP10; test: shrunken log2 fold change of peptide-encoding DNA abundance (4.5 h post-induction vs induction); higher = less antimicrobial activity (less host growth inhibition); conditions: time post-induction: 4.5 h; library: site-saturation at positions 5, 18, 19, 20
Answers are plain numbers.

Observe how each entry below is paired with its result.
Report shrunken log2 fold change under test system Escherichia coli TOP10 for `RRIRIRPPRLPRPRPRPFCGPRP` .
-0.228

Report shrunken log2 fold change under test system Escherichia coli TOP10 for `RRIRMRPPRLPRPRPRPGPDPRP` .
0.768

# return shrunken log2 fold change for each item in the list
1. RRIRDRPPRLPRPRPRPHVKPRP
2. RRIRTRPPRLPRPRPRPGAYPRP
3. RRIRRRPPRLPRPRPRPGEMPRP
4. RRIRWRPPRLPRPRPRPQGWPRP
5. RRIRSRPPRLPRPRPRPQGMPRP
6. RRIRLRPPRLPRPRPRPLFAPRP

1: -0.205; 2: -0.143; 3: 0.122; 4: 0.0714; 5: -0.124; 6: 0.233

###

For each entry below, report its shrunken log2 fold change value.
tested on: Escherichia coli TOP10; assay: shrunken log2 fold change of peptide-encoding DNA abundance (4.5 h post-induction vs induction); higher = less antimicrobial activity (less host growth inhibition); conditions: time post-induction: 4.5 h; library: site-saturation at positions 5, 18, 19, 20
Give bare numbers.

Observe how each entry below is paired with its result.
# return recorded shrunken log2 fold change for entry `RRIRMRPPRLPRPRPRPGAIPRP`
1.4

# return recorded shrunken log2 fold change for entry `RRIRYRPPRLPRPRPRPCYYPRP`
-1.03

# return recorded shrunken log2 fold change for entry `RRIRHRPPRLPRPRPRPHYDPRP`
-0.257

# return recorded shrunken log2 fold change for entry `RRIRPRPPRLPRPRPRPAWHPRP`
0.362

# return recorded shrunken log2 fold change for entry `RRIRMRPPRLPRPRPRPHSRPRP`
0.211

# return shrunken log2 fold change for each item in the list
1. RRIRRRPPRLPRPRPRPAVPPRP
2. RRIRHRPPRLPRPRPRPTKEPRP

1. 0.146
2. -0.0586

# return shrunken log2 fold change for each item in the list
1. RRIRGRPPRLPRPRPRPLNYPRP
2. RRIRDRPPRLPRPRPRPVPRPRP
3. RRIRNRPPRLPRPRPRPEGQPRP
4. RRIRGRPPRLPRPRPRPYDSPRP
5. RRIRNRPPRLPRPRPRPQCPPRP
6. RRIRWRPPRLPRPRPRPVTGPRP
7. RRIRARPPRLPRPRPRPSQFPRP

0.131
0.186
-0.00174
0.0118
-0.33
0.183
-0.0956

# return recorded shrunken log2 fold change for entry `RRIRHRPPRLPRPRPRPDMCPRP`
-0.173

###

system: Escherichia coli TOP10; assay: shrunken log2 fold change of peptide-encoding DNA abundance (4.5 h post-induction vs induction); higher = less antimicrobial activity (less host growth inhibition); details: time post-induction: 4.5 h; library: site-saturation at positions 5, 18, 19, 20
Reported metric: shrunken log2 fold change

Observe how each entry below is paired with its result.
Report shrunken log2 fold change under test system Escherichia coli TOP10 for `RRIRMRPPRLPRPRPRPEFRPRP` .
0.275

Report shrunken log2 fold change under test system Escherichia coli TOP10 for `RRIRCRPPRLPRPRPRPNYNPRP` .
-0.986

Report shrunken log2 fold change under test system Escherichia coli TOP10 for `RRIRFRPPRLPRPRPRPYNMPRP` .
-0.725

# return shrunken log2 fold change for each item in the list
1. RRIRNRPPRLPRPRPRPHLQPRP
2. RRIRMRPPRLPRPRPRPNMAPRP
3. RRIRRRPPRLPRPRPRPNPGPRP
4. RRIRERPPRLPRPRPRPLTPPRP

[-0.198, 0.155, -0.035, -0.123]

###

tested on: Escherichia coli TOP10; test: shrunken log2 fold change of peptide-encoding DNA abundance (4.5 h post-induction vs induction); higher = less antimicrobial activity (less host growth inhibition); settings: time post-induction: 4.5 h; library: site-saturation at positions 5, 18, 19, 20
For each entry below, report its shrunken log2 fold change value.
Numbers only.

Observe how each entry below is paired with its result.
# return recorded shrunken log2 fold change for entry `RRIRDRPPRLPRPRPRPKEDPRP`
0.337

# return recorded shrunken log2 fold change for entry `RRIRERPPRLPRPRPRPEGMPRP`
0.046

# return recorded shrunken log2 fold change for entry `RRIRARPPRLPRPRPRPIVKPRP`
0.0456

# return recorded shrunken log2 fold change for entry `RRIRIRPPRLPRPRPRPSQEPRP`
-0.317

# return shrunken log2 fold change for each item in the list
1. RRIRKRPPRLPRPRPRPMIAPRP
2. RRIRSRPPRLPRPRPRPWLNPRP
3. RRIRKRPPRLPRPRPRPRKLPRP
4. RRIRNRPPRLPRPRPRPYKYPRP
5. RRIRFRPPRLPRPRPRPFSQPRP
6. RRIRDRPPRLPRPRPRPPVLPRP
7. RRIRCRPPRLPRPRPRPQPSPRP
8. RRIRARPPRLPRPRPRPAKLPRP

1. 0.509
2. -0.119
3. 0.0707
4. -0.369
5. -0.452
6. 0.267
7. 0.228
8. 0.196

###

For each entry below, report its shrunken log2 fold change value.
test system: Escherichia coli TOP10; experiment: shrunken log2 fold change of peptide-encoding DNA abundance (4.5 h post-induction vs induction); higher = less antimicrobial activity (less host growth inhibition); conditions: time post-induction: 4.5 h; library: site-saturation at positions 5, 18, 19, 20;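 note: peptides expressed intracellularly from a pBAD plasmid library in pooled LB shake-flask culture, induced with 0.3% L-arabinose, DNA abundance read by NGS, three biological replicates, DESeq2 with apeglm shrinkage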
Answers are plain numbers.

Observe how each entry below is paired with its result.
# return recorded shrunken log2 fold change for entry `RRIRSRPPRLPRPRPRPDLGPRP`
0.0168

# return recorded shrunken log2 fold change for entry `RRIRSRPPRLPRPRPRPCFTPRP`
-0.521

# return recorded shrunken log2 fold change for entry `RRIRHRPPRLPRPRPRPGVYPRP`
-0.138

# return recorded shrunken log2 fold change for entry `RRIRGRPPRLPRPRPRPTKTPRP`
0.0741

# return recorded shrunken log2 fold change for entry `RRIRDRPPRLPRPRPRPTHSPRP`
0.177

# return shrunken log2 fold change for each item in the list
1. RRIRMRPPRLPRPRPRPGVEPRP
2. RRIRLRPPRLPRPRPRPIVRPRP
3. RRIRLRPPRLPRPRPRPSQCPRP

[1.39, -0.151, -0.114]

# return shrunken log2 fold change for each item in the list
1. RRIRNRPPRLPRPRPRPTMMPRP
2. RRIRPRPPRLPRPRPRPYGYPRP
3. RRIRRRPPRLPRPRPRPAHGPRP
4. RRIRVRPPRLPRPRPRPDFLPRP
5. RRIRSRPPRLPRPRPRPSRWPRP
6. RRIRHRPPRLPRPRPRPHEMPRP
7. RRIRLRPPRLPRPRPRPGWNPRP

[0.0241, -0.138, 0.279, -0.189, 0.188, -0.257, 0.000784]

# return shrunken log2 fold change for each item in the list
1. RRIRSRPPRLPRPRPRPTGCPRP
2. RRIRQRPPRLPRPRPRPSEFPRP
3. RRIRVRPPRLPRPRPRPTKMPRP
4. RRIRVRPPRLPRPRPRPAWFPRP
5. RRIRYRPPRLPRPRPRPNCWPRP
6. RRIRQRPPRLPRPRPRPSRYPRP
7. RRIRGRPPRLPRPRPRPWYYPRP
8. RRIRYRPPRLPRPRPRPAYKPRP

1: 0.159; 2: -0.0736; 3: 0.0488; 4: 0.0841; 5: -0.36; 6: -0.00452; 7: -0.148; 8: -0.14

# return shrunken log2 fold change for each item in the list
1. RRIRGRPPRLPRPRPRPGMGPRP
2. RRIRMRPPRLPRPRPRPYKLPRP
3. RRIRLRPPRLPRPRPRPEFWPRP
4. RRIRGRPPRLPRPRPRPQSLPRP
5. RRIRRRPPRLPRPRPRPDEPPRP
6. RRIRLRPPRLPRPRPRPVETPRP
7. RRIRFRPPRLPRPRPRPRYHPRP

1: 0.963; 2: 0.00411; 3: 0.417; 4: 0.251; 5: -0.0328; 6: 0.217; 7: -0.295

# return shrunken log2 fold change for each item in the list
1. RRIRGRPPRLPRPRPRPAVTPRP
2. RRIRLRPPRLPRPRPRPFHIPRP

[0.688, -0.292]
